test-method-notes: in vitro
measurement-conditions: African green monkey, Vero E6 Cytotoxicity (IC50), MTT
Binary label based on IC50 with cut-off 50 µM: below gives satisfied, not below gives not satisfied.

Example entries begin here.
1) Cc1nn(-c2ccc(Cl)cc2)c2c1C(c1ccc(F)cc1F)C(C#N)=C(N)O2 (stereo not drawn) | satisfied
2) Cc1nn(-c2ccc(Cl)cc2)c2c1C(c1ccc(I)cc1)C(C#N)=C(N)O2 (stereo not drawn) | not satisfied
3) COc1cc(C2C(C#N)=C(N)Oc3c2c(C)nn3-c2ccc(Cl)cc2)ccc1O (stereo not drawn) | satisfied

Query: Please state whether IC50 is below 50 µM for COc1cc(C2C(C#N)=C(N)Oc3c2c(C)nn3-c2ccc(Cl)cc2)cc(OC)c1OC (stereo not drawn)
Result: not satisfied

Query: Is IC50 strictly under 50 µM for the entry Cc1nn(-c2ccc(Cl)cc2)c2c1C(c1cccc(Cl)c1Cl)C(C#N)=C(N)O2 (stereo not drawn) ?
Result: satisfied

Query: Consider Cc1nn(-c2ccc(Cl)cc2)c2c1C(c1ccc(-c3ccccc3)cc1)C(C#N)=C(N)O2 (stereo not drawn) . Does its IC50 lie strictly below 50 µM?
Result: not satisfied

* * *

test-method-notes: Enzymatic metabolic stability
Format: in vitro ADME
observation-type: microsomal CLint (µL/min/mg)
Hi! Could you send only the number? It should be in µL/min/mg, unit omitted.

microsomal CLint reading for Cc1nn(-c2ccc(Cl)cc2)c2c1C(c1ccc(Cl)cc1Cl)C(C#N)=C(N)O2 (stereo not shown) : 54.6

* * *

Reported pIC50 values, SARS-CoV-2 M^pro (Severe acute respiratory syndrome coronavirus 2, UniProt P0DTD1).
Friendly reminder that pIC50 comes from taking -log10 of the concentration in mol/L.

Some solved cases for reference:
1. Cc1nn(-c2ccc(Cl)cc2)c2c1C(c1ccc([N+](=O)[O-])cc1)C(C#N)=C(N)O2 (stereo not shown) [Compound 23] | 5.02
2. Cc1nn(-c2ccc(Cl)cc2)c2c1C(c1ccc(Br)cc1)C(C#N)=C(N)O2 (stereo not shown) [Compound 19] | 4.51
3. Cc1nn(-c2ccc(Cl)cc2)c2c1C(c1ccc(I)cc1)C(C#N)=C(N)O2 (stereo not shown) [Compound 20] | 4.16

Briefly, pIC50 measured for Cc1nn(-c2ccc(Cl)cc2)c2c1C(c1ccc(Cl)cc1)C(C#N)=C(N)O2 (stereo not shown) [Compound 18] : 4.89
